Source: ChEMBL document CHEMBL1795228

Assay: In-vitro blood to lung partition coefficients of the compound, logP(lung) (human/rat)

| molecule | logP(lung) |
| --- | --- |
| ClC=C(Cl)Cl | 0.01 |
| ClCCl [METHYLENE CHLORIDE] | -0.36 |
| C=CC | -0.03 |
| CCCCCCC | -0.1 |
| FS(F)(F)(F)(F)F [SULFUR HEXAFLUORIDE] | 0.03 |
| ClC(Cl)=C(Cl)Cl | 0.67 |
| C1CC1 | -0.3 |
| CC1CCCC1 | 0.3 |
| FC(F)OC(Cl)C(F)(F)F (centres undefined) | 0 |
| COC(F)(F)C(Cl)Cl | -0.08 |
| CO | -0.17 |
| C1CCCCC1 | 0.26 |
| FC(F)(F)c1ccc(Cl)cc1 | 0.2 |
| FC(F)OC(F)(F)C(F)Cl (centres undefined) | 0.21 |

----------
Experiment: In-vivo plasma to lung partition coefficients of the compound, logP(lung) in rat
Format: ADME, cell-free

| compound | logP(lung) |
| --- | --- |
| Cn1c(=O)c2[nH]cnc2n(C)c1=O.O | -0.15 |
| Nc1cc(Cl)c(S(N)(=O)=O)cc1-c1nnn[nH]1 | 0.6 |
| Cc1onc(-c2c(Cl)cccc2Cl)c1C(=O)N[C@@H]1C(=O)N2[C@@H]1SC(C)(C)[C@@H]2C(=O)O | -0.92 |
| Cc1nnc(SCC2=C(C(=O)O)N3C(=O)[C@@H](NC(=O)Cn4cnnn4)[C@H]3SC2)s1 | -0.78 |
| O=C(O)c1ccc(-c2ccccc2)cc1 | -0.55 |
| CN1C(=O)NC(=O)C(C)(C2=CCCCC2)C1=O (stereo not given) [HEXOBARBITAL] | 0.45 |
| CCC1(CC)C(=O)NC(=O)NC1=O | 0 |
| c1cc2ccc3cccc4ccc(c1)c2c34 | 0.35 |
| CN1C(C(=O)Nc2ccccn2)=C(O)c2sccc2S1(=O)=O | -0.49 |
| CC(C)NCC(O)COc1ccc(CCOCC2CC2)cc1 (stereo not given) | 2.29 |

----------
Assay: In-vitro air to blood partition coefficients of the compound, logK(blood) (human/rat)
Conditions: octanol/water
measuredEndpoint: logK(blood)

| molecule | result |
| --- | --- |
| c1ccccc1 [BENZENE] | 1.05 |
| [C-]#[O+] [CARBON MONOXIDE] | -1.67 |
| ClCCl [METHYLENE CHLORIDE] | 1.12 |
| C=CC [PROPENE] | -0.21 |
| ClC=C(Cl)Cl [TRICHLOROETHYLENE] | 1.14 |
| [He] [HELIUM] | -2 |
| CC(Cl)(Cl)Cl [TRICHLOROETHANE] | 0.63 |
| C=CC=C [BUTADIENE] | 0.09 |
| FC(F)(F)CCl | 0.14 |
| CCCCCC [HEXANE] | 0.21 |
| FCOC(C(F)(F)F)C(F)(F)F [SEVOFLURANE] | -0.2 |
| C#C [ETHYNE] | -0.06 |
| C1CO1 [OXIRANE] | 1.8 |
| C=C | -0.53 |
| ClC(Cl)=C(Cl)Cl [TETRACHLOROETHYLENE] | 1.19 |
| FC(F)(F)C(Cl)Br (stereo unspecified) [HALOTHANE] | 0.57 |
